test system: Hs-578-T (Breast Carcinoma); test: Bliss excess, mean over the matrix (fraction); higher = more synergy

Molecule: CN(CCO)CC[C@H](CSc1ccccc1)Nc1ccc(S(=O)(=O)NC(=O)c2ccc(N3CCC([C@@H](O)c4ccccc4-c4ccc(Cl)cc4)CC3)cc2)cc1S(=O)(=O)C(F)(F)F [AZD4320] + CS(=O)(=O)CCNCc1ccc(-c2ccc3ncnc(Nc4ccc(OCc5cccc(F)c5)c(Cl)c4)c3c2)o1 [Lapatinib] (first compound max 1 µM, 7x7, partner max 10 µM)
Tested System: Hs-578-T (Breast Carcinoma)
Bliss excess: 0.0188

Molecule: O=C(c1cc(Cc2n[nH]c(=O)c3ccccc23)ccc1F)N1CCN(C(=O)C2CC2)CC1 [Olaparib] + COc1nnc2ccc(N3CCC(c4ccc(OCCN5CCN(C)C(=O)[C@H]5C)cc4)CC3)nn12 [AZD5153] (first compound max 10 µM, 7x7, partner max 1 µM)
Tested System: Hs-578-T (Breast Carcinoma)
Bliss excess: -0.0551

Molecule: C=CCn1c(=O)c2cnc(Nc3ccc(N4CCN(C)CC4)cc3)nc2n1-c1cccc(C(C)(C)O)n1 [AZD1775] + CCc1c2c(nc3ccc(O)cc13)-c1cc3c(c(=O)n1C2)COC(=O)[C@]3(O)CC [SN-38] (first compound max 1 µM, partner max 0.3 µM)
Tested System: Hs-578-T (Breast Carcinoma)
Bliss excess: 0.0934

Molecule: N#Cc1cnc(Nc2cc(NC[C@H]3CNCCO3)c(C(F)(F)F)cn2)cn1 [SRA737] + O=c1[nH]cc(F)c(=O)[nH]1 [5-Fluorouracil] (first compound max 10 µM, 7x7, partner max 20 µM)
Tested System: Hs-578-T (Breast Carcinoma)
Bliss excess: 0.0056

Molecule: CCc1c2c(nc3ccc(O)cc13)-c1cc3c(c(=O)n1C2)COC(=O)[C@]3(O)CC [SN-38] + O=C(c1cc(Cc2n[nH]c(=O)c3ccccc23)ccc1F)N1CCN(C(=O)C2CC2)CC1 [Olaparib] (first compound max 0.3 µM, 7x7, partner max 10 µM)
Tested System: Hs-578-T (Breast Carcinoma)
Bliss excess: 0.0807

Molecule: Cc1cc2ncnn2cc1Nc1ncc2c(n1)n(C1CCOCC1)c(=O)n2C [AZD7648] + CCN(CCO)CCCOc1ccc2c(Nc3cc(CC(=O)Nc4cccc(F)c4)[nH]n3)ncnc2c1 [AZD2811] (first compound max 10 µM, 7x7, partner max 1 µM)
Tested System: Hs-578-T (Breast Carcinoma)
Bliss excess: -0.0561

Molecule: O=C(c1cc(Cc2n[nH]c(=O)c3ccccc23)ccc1F)N1CCN(C(=O)C2CC2)CC1 [Olaparib] + CN(CC[C@H](CSC1=CC=CC=C1)NC2=C(C=C(C=C2)S(=O)(=O)NC(=O)C3=CC=C(C=C3)N4CCC(CC4)[C@H](C5=CC=CC=C5C6=CC=C(C=C6)Cl)O)S(=O)(=O)C(F)(F)F)CCO [AZD4320] (first compound max 10 µM, 7x7, partner max 1 µM)
Tested System: Hs-578-T (Breast Carcinoma)
Bliss excess: -0.0625

====

Here, each record is paired with measured combination Emax data.
test system: LNCaP-Clone-FGC (Prostate Carcinoma); assay: combination Emax (second highest fraction inhibited in the dose matrix, 72 h); higher = more inhibition; extreme values may be limits of the assay

Compound: CN(CCO)CC[C@H](CSc1ccccc1)Nc1ccc(S(=O)(=O)NC(=O)c2ccc(N3CCC([C@@H](O)c4ccccc4-c4ccc(Cl)cc4)CC3)cc2)cc1S(=O)(=O)C(F)(F)F [AZD4320] + C=CCn1c(=O)c2cnc(Nc3ccc(N4CCN(C)CC4)cc3)nc2n1-c1cccc(C(C)(C)O)n1 [AZD1775] (first compound max 1 µM, partner max 1 µM)
combination Emax: 0.773
//
Compound: CCN(CCO)CCCOc1ccc2c(Nc3cc(CC(=O)Nc4cccc(F)c4)[nH]n3)ncnc2c1 [AZD2811] + C[C@@H]1COCCN1C2=NC(=NC(=C2)C3(CC3)[S@](=N)(=O)C)C4=C5C=CNC5=NC=C4 [AZD6738] (first compound max 1 µM, 7x7, partner max 10 µM)
combination Emax: 0.736

====

system: LNCaP-Clone-FGC (Prostate Carcinoma); assay: combination Emax (second highest fraction inhibited in the dose matrix, 72 h); higher = more inhibition; extreme values may be limits of the assay
Observation Type: combination Emax

Compound: CC(=O)c1c(C)c2cnc(Nc3ccc(N4CCNCC4)cn3)nc2n(C2CCCC2)c1=O [Palbociclib] + Cn1cnc2c(F)c(Nc3ccc(Br)cc3Cl)c(C(=O)NOCCO)cc21 [Selumetinib] (first compound max 10 µM, 7x7, partner max 10 µM)
Readout Value: 0.451
//
Compound: Cc1c2c(nn1C)CSCc1cc(n(C)n1)CSc1cc(c3ccccc3c1)OCCCc1c(C(=O)O)n(C)c3c-2c(Cl)ccc13 [AZD5991] + C[C@@H](Nc1cc(F)cc(F)c1)c1cc(C(=O)N(C)C)cc2c(=O)cc(N3CCOCC3)oc12 [AZD8186] (first compound max 1 µM, 7x7, partner max 3 µM)
Readout Value: 0.894

====

Here, each record is paired with measured combination Emax data.
test system: AGS (Gastric Carcinoma); assay: combination Emax (second highest fraction inhibited in the dose matrix, 72 h); higher = more inhibition; extreme values may be limits of the assay
Observation Type: combination Emax

Compound: Cc1c2c(nn1C)CSCc1cc(n(C)n1)CSc1cc(c3ccccc3c1)OCCCc1c(C(=O)O)n(C)c3c-2c(Cl)ccc13 [AZD5991] + C[C@@H](Nc1cc(F)cc(F)c1)c1cc(C(=O)N(C)C)cc2c(=O)cc(N3CCOCC3)oc12 [AZD8186] (first compound max 1 µM, 7x7, partner max 3 µM)
Readout Value: 0.246

Compound: Cn1cnc2c(F)c(Nc3ccc(Br)cc3Cl)c(C(=O)NOCCO)cc21 [Selumetinib] + C[C@@H]1COCCN1C2=NC(=NC(=C2)C3(CC3)[S@](=N)(=O)C)C4=C5C=CNC5=NC=C4 [AZD6738] (first compound max 10 µM, 7x7, partner max 10 µM)
Readout Value: 0.986

Compound: CN(CCO)CC[C@H](CSc1ccccc1)Nc1ccc(S(=O)(=O)NC(=O)c2ccc(N3CCC([C@@H](O)c4ccccc4-c4ccc(Cl)cc4)CC3)cc2)cc1S(=O)(=O)C(F)(F)F [AZD4320] + C1CN(CCC1(C(=O)N[C@@H](CCO)C2=CC=C(C=C2)Cl)N)C3=NC=NC4=C3C=CN4 [Capivasertib] (first compound max 1 µM, 7x7, partner max 3 µM)
Readout Value: 0.692

Compound: NC1(C(=O)N[C@@H](CCO)c2ccc(Cl)cc2)CCN(c2ncnc3[nH]ccc23)CC1 [Capivasertib] + Cn1cnc2c(F)c(Nc3ccc(Br)cc3Cl)c(C(=O)NOCCO)cc21 [Selumetinib] (first compound max 10 µM, 7x7, partner max 10 µM)
Readout Value: 0.953

Compound: CN(CCO)CC[C@H](CSc1ccccc1)Nc1ccc(S(=O)(=O)NC(=O)c2ccc(N3CCC([C@@H](O)c4ccccc4-c4ccc(Cl)cc4)CC3)cc2)cc1S(=O)(=O)C(F)(F)F [AZD4320] + CN(C)CCCOc1ccc(-c2ccc3ncc4c(c3c2)n(C2CCOCC2)c(=O)n4C)cn1 [AZD0156] (first compound max 1 µM, 7x7, partner max 1 µM)
Readout Value: 0.237

====

tested on: LU-135 (Small Cell Lung Carcinoma); assay: Bliss excess, mean over the matrix (fraction); higher = more synergy
Outcome: Fulfilled for Bliss excess of at least 0.01; Not fulfilled for anything lower.

Compound: COc1nnc2ccc(N3CCC(c4ccc(OCCN5CCN(C)C(=O)[C@H]5C)cc4)CC3)nn12 [AZD5153] + C[C@@H]1COCCN1C2=NC(=NC(=C2)C3(CC3)[S@](=N)(=O)C)C4=C5C=CNC5=NC=C4 [AZD6738] (first compound max 1 µM, 7x7, partner max 10 µM)
Tested System: LU-135 (Small Cell Lung Carcinoma)
Qualitative Label: Fulfilled
--
Compound: CN(CCO)CC[C@H](CSc1ccccc1)Nc1ccc(S(=O)(=O)NC(=O)c2ccc(N3CCC([C@@H](O)c4ccccc4-c4ccc(Cl)cc4)CC3)cc2)cc1S(=O)(=O)C(F)(F)F [AZD4320] + C=CCn1c(=O)c2cnc(Nc3ccc(N4CCN(C)CC4)cc3)nc2n1-c1cccc(C(C)(C)O)n1 [AZD1775] (first compound max 1 µM, partner max 1 µM)
Tested System: LU-135 (Small Cell Lung Carcinoma)
Qualitative Label: Fulfilled
--
Compound: NC1(C(=O)N[C@@H](CCO)c2ccc(Cl)cc2)CCN(c2ncnc3[nH]ccc23)CC1 [Capivasertib] + CC(C)n1c(=O)n(C)c2cnc3cc(F)c(-c4ccc(OCCCN5CCCCC5)nc4)cc3c21 [AZD1390] (first compound max 10 µM, 7x7, partner max 0.3 µM)
Tested System: LU-135 (Small Cell Lung Carcinoma)
Qualitative Label: Not fulfilled
--
Compound: CN(C)CCCOc1ccc(-c2ccc3ncc4c(c3c2)n(C2CCOCC2)c(=O)n4C)cn1 [AZD0156] + C[C@@H]1COCCN1C2=NC(=NC(=C2)C3(CC3)[S@](=N)(=O)C)C4=C5C=CNC5=NC=C4 [AZD6738] (first compound max 1 µM, 7x7, partner max 10 µM)
Tested System: LU-135 (Small Cell Lung Carcinoma)
Qualitative Label: Not fulfilled
--
Compound: Cc1c2c(nn1C)CSCc1cc(n(C)n1)CSc1cc(c3ccccc3c1)OCCCc1c(C(=O)O)n(C)c3c-2c(Cl)ccc13 [AZD5991] + Cn1cnc2c(F)c(Nc3ccc(Br)cc3Cl)c(C(=O)NOCCO)cc21 [Selumetinib] (first compound max 1 µM, 7x7, partner max 3 µM)
Tested System: LU-135 (Small Cell Lung Carcinoma)
Qualitative Label: Not fulfilled
--
Compound: CN(C)CCCOc1ccc(-c2ccc3ncc4c(c3c2)n(C2CCOCC2)c(=O)n4C)cn1 [AZD0156] + CCN(CCO)CCCOc1ccc2c(Nc3cc(CC(=O)Nc4cccc(F)c4)[nH]n3)ncnc2c1 [AZD2811] (first compound max 1 µM, 7x7, partner max 1 µM)
Tested System: LU-135 (Small Cell Lung Carcinoma)
Qualitative Label: Not fulfilled
--
Compound: Cc1cc2ncnn2cc1Nc1ncc2c(n1)n(C1CCOCC1)c(=O)n2C [AZD7648] + C=CCn1c(=O)c2cnc(Nc3ccc(N4CCN(C)CC4)cc3)nc2n1-c1cccc(C(C)(C)O)n1 [AZD1775] (first compound max 10 µM, partner max 1 µM)
Tested System: LU-135 (Small Cell Lung Carcinoma)
Qualitative Label: Not fulfilled
--
Compound: COc1nnc2ccc(N3CCC(c4ccc(OCCN5CCN(C)C(=O)[C@H]5C)cc4)CC3)nn12 [AZD5153] + CCN(CCO)CCCOc1ccc2c(Nc3cc(CC(=O)Nc4cccc(F)c4)[nH]n3)ncnc2c1 [AZD2811] (first compound max 1 µM, 7x7, partner max 1 µM)
Tested System: LU-135 (Small Cell Lung Carcinoma)
Qualitative Label: Not fulfilled
--
Compound: COc1cccc(OCCCN)c1-c1cc(Nc2cnc(C#N)cn2)n[nH]1 [Prexasertib] + C[C@@H]1COCCN1C2=NC(=NC(=C2)C3(CC3)[S@](=N)(=O)C)C4=C5C=CNC5=NC=C4 [AZD6738] (first compound max 1 µM, 7x7, partner max 10 µM)
Tested System: LU-135 (Small Cell Lung Carcinoma)
Qualitative Label: Fulfilled
--
Compound: C=CCn1c(=O)c2cnc(Nc3ccc(N4CCN(C)CC4)cc3)nc2n1-c1cccc(C(C)(C)O)n1 [AZD1775] + C1CN(CCC1(C(=O)N[C@@H](CCO)C2=CC=C(C=C2)Cl)N)C3=NC=NC4=C3C=CN4 [Capivasertib] (first compound max 3 µM, partner max 3 µM)
Tested System: LU-135 (Small Cell Lung Carcinoma)
Qualitative Label: Fulfilled
--
Compound: CN(CCO)CC[C@H](CSc1ccccc1)Nc1ccc(S(=O)(=O)NC(=O)c2ccc(N3CCC([C@@H](O)c4ccccc4-c4ccc(Cl)cc4)CC3)cc2)cc1S(=O)(=O)C(F)(F)F [AZD4320] + Cc1cc2ncnn2cc1Nc1ncc2c(n1)n(C1CCOCC1)c(=O)n2C [AZD7648] (first compound max 1 µM, 7x7, partner max 10 µM)
Tested System: LU-135 (Small Cell Lung Carcinoma)
Qualitative Label: Fulfilled
--
Compound: CC1(C)CCC(CN2CCN(c3ccc(C(=O)NS(=O)(=O)c4ccc(NCC5CCOCC5)c([N+](=O)[O-])c4)c(Oc4cnc5[nH]ccc5c4)c3)CC2)=C(c2ccc(Cl)cc2)C1 [Venetoclax] + CN(C)CCCOc1ccc(-c2ccc3ncc4c(c3c2)n(C2CCOCC2)c(=O)n4C)cn1 [AZD0156] (first compound max 1 µM, 7x7, partner max 1 µM)
Tested System: LU-135 (Small Cell Lung Carcinoma)
Qualitative Label: Not fulfilled
--
Compound: CCc1c2c(nc3ccc(O)cc13)-c1cc3c(c(=O)n1C2)COC(=O)[C@]3(O)CC [SN-38] + CN(C)CCCOc1ccc(-c2ccc3ncc4c(c3c2)n(C2CCOCC2)c(=O)n4C)cn1 [AZD0156] (first compound max 0.3 µM, 7x7, partner max 1 µM)
Tested System: LU-135 (Small Cell Lung Carcinoma)
Qualitative Label: Not fulfilled
--
Compound: NC1(C(=O)N[C@@H](CCO)c2ccc(Cl)cc2)CCN(c2ncnc3[nH]ccc23)CC1 [Capivasertib] + CC(=O)c1c(C)c2cnc(Nc3ccc(N4CCNCC4)cn3)nc2n(C2CCCC2)c1=O [Palbociclib] (first compound max 10 µM, 7x7, partner max 10 µM)
Tested System: LU-135 (Small Cell Lung Carcinoma)
Qualitative Label: Not fulfilled
